The measured values listed here are drawn from patent US20260242735A1.

measuredTarget: human CD33 H157A (human, UniProt P20138 18-364)
Sequence (P20138 18-364 H157A limits assumed): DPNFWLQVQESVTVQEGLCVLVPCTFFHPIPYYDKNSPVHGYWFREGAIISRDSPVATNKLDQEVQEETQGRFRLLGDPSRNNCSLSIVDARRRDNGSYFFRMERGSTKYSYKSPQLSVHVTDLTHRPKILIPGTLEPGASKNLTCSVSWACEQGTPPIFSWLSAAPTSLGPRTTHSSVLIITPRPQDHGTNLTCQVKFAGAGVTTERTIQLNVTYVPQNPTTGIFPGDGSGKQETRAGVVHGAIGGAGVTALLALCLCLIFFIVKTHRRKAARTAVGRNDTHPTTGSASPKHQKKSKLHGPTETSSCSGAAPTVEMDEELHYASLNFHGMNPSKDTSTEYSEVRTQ
assayRemarks: flow cytometry on HEK293-T, alanine scan
Catalogue of Mean % WT Binding values

| binder | readoutUnit | Mean % WT Binding |
| --- | --- | --- |
| Refmab #4 (antibody, V domains shown, The alanine scan used IgG or Fab) VH: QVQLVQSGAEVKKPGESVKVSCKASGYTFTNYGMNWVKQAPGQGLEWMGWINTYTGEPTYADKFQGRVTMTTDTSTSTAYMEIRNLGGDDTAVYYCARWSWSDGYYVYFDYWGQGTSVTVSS VL: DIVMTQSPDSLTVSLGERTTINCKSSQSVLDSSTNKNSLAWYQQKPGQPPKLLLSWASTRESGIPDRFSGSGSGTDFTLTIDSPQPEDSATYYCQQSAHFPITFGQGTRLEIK | % WT binding | 97.4 |
| Refmab #3 (antibody, V domains shown, The alanine scan used IgG or Fab) VH: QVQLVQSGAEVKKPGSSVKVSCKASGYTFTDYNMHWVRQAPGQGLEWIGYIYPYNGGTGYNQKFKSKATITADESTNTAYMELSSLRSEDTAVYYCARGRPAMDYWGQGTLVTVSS VL: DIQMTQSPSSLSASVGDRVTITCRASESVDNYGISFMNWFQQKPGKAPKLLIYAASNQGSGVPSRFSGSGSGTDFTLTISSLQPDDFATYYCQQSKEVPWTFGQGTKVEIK | % WT binding | 138 |
| Refmab #1 (antibody, V domains shown, The alanine scan used IgG or Fab; also called hP67.6) VH: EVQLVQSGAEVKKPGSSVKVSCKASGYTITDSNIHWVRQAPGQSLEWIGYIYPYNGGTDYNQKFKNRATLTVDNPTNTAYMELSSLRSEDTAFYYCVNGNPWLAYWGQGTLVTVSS VL: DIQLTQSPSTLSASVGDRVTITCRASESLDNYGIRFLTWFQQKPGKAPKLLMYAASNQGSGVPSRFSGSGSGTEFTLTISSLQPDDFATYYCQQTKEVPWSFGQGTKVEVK | % WT binding | 86.6 |
| Refmab #2 (antibody, V domains shown, The alanine scan used IgG or Fab) VH: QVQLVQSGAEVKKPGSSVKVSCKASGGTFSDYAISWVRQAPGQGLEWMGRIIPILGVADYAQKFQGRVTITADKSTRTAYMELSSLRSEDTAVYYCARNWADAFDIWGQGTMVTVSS VL: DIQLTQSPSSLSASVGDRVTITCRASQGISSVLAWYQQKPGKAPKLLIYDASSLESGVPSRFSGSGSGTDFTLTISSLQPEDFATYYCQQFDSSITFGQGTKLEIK | % WT binding | 115 |
